measurement.protocol: Acute toxicity in mice
run.parameters: in vivo, iv; mouse, intravenously injected; read-out: LD₅₀

[
  {
    "input.smiles": "CCCC(=O)Nc1ncnc2c1ncn2[C@@H]1O[C@@H]2COP(=O)(O)O[C@H]2[C@H]1OC(=O)CCC",
    "LD50 (mg/kg)": 545
  }
]
